- Test system: Aedes aegypti
- measurement_description: Total mosquito toxic knockdown after K & D module exposure (Experiment 8)
- Format: in vivo
- measurement_setup: Exp. 8; 25 nmol/cm^2 cloth; dead mosquitoes 6 min post-treatment exposure
- Description: Plant extracts, fractions, or isolated pure plant derived compounds in 95% ethanol solution were each randomly applied to six-4×5 cm areas of organdy cloth and positioned over the membrane-covered blood. […] After a 3 minute exposure, the number of mosquitoes biting through cloth treatments in each cell was recorded and mosquitoes were prodded back into the cells. […]

compound | Total Knock down 6 min
C=C(C)C1CCC2(C)CCCC(C)(O)C2C1 [intermedeol, (4S,5S,7R,10S)-eudesm-11-en-4-ol] | 1
CC1=CCC[C@@H]2[C@@](C)(CC=O)[C@H](C)CC[C@@]12C [callicarpenal, 13,14,15,16-tetranorclerod-3-en-12-al] | 0
C=C1CC[C@@H]2[C@H]([C@H]3[C@H]1CC[C@]3(C)O)C2(C)C [spathulenol] | 1
C[C@H]1CCCCN1C(=O)[C@@H]1CC=CCC1 [SS220, reference compound] | 0
